Reference source for all entries: patent US20230141177A1

# Assayed system: T1, cyclo (CGHHQKG) (SEQ ID NO: 2)-BSA (cyclized peptide, cyclo(CGHHQKG); conjugated to BSA)
# T1 construct: also called cyclic peptide-BSA; cyclo-BSA peptide
# T1 sequence (P02769 25-607 limits assumed): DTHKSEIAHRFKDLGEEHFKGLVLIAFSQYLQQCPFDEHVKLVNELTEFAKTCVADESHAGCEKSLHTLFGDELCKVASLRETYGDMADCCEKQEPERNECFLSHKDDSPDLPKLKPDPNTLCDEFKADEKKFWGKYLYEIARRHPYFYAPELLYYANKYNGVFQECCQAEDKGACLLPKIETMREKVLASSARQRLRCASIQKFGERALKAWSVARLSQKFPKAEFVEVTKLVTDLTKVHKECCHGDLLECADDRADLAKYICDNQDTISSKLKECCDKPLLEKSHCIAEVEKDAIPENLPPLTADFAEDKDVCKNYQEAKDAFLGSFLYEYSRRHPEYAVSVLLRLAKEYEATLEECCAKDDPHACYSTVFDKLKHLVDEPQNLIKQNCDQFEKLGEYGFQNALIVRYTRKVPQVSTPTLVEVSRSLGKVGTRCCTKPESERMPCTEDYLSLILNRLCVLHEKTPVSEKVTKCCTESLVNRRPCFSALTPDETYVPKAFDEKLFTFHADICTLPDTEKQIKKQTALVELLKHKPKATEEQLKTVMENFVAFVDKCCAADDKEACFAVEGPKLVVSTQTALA
# Test protocol: SPR multi-cycle kinetics, purified IgG4 vs cyclic peptide-BSA
List of kon values.
Numbers only here, please. The scale is M⁻¹ s⁻¹.

# input Using the record for Clone 14 (affinity matured VH with parental Vk, human IgG4 S241P / kappa) (antibody, V domains shown) VH: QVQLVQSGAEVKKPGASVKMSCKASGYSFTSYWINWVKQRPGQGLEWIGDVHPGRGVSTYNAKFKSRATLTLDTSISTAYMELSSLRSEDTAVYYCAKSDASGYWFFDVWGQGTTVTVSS VL: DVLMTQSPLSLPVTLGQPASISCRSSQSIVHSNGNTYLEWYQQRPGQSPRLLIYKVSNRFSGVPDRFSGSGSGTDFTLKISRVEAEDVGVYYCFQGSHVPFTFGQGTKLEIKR , state its measured kon.
# output 5.26e+06

# input Using the record for parental antibody, PMN310 humanized antibody variant VH2/Vk5 (human IgG4 S241P / kappa) (antibody, V domains shown, also called parental huPMN310; huPMN310) VH: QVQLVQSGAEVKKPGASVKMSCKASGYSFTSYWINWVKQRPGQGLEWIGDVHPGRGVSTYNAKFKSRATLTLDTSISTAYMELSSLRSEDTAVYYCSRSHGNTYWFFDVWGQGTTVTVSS VL: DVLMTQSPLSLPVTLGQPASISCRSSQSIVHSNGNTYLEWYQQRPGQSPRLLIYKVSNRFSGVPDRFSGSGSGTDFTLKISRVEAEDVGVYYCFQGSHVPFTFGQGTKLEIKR , state its measured kon.
# output 5.65e+06

# input Using the record for Clone 4 (affinity matured VH with parental Vk, human IgG4 S241P / kappa) (antibody, V domains shown) VH: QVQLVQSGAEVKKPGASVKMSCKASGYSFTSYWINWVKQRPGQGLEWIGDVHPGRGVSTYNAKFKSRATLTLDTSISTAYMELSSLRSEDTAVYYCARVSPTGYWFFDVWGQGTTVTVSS VL: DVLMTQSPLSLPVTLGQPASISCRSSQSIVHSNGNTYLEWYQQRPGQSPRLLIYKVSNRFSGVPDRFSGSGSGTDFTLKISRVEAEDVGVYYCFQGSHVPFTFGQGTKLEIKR , state its measured kon.
# output 2.94e+06
